- System: SK-MEL-2
- protocol-summary: NCI-60 screen (SRB)
- Format: cell-based, human
- condition-parameters: SK-MEL-2 (Melanoma), 10 µM, 48 h; negative = cell death vs time zero
Listed molecules paired with reported percent cell growth
parameter-measured: percent cell growth (%)

1) CC/N=C1\NC(=O)/C(=C\c2c[nH]c3ncccc23)S1 [DJE4] : −48.7
2) Cl.O=C1NC(=NCCc2ccccc2)SC1=Cc1c[nH]c2ncccc12 (mixture of isomers) [DJ4-HCl] : −4.6
3) O=C1N/C(=N\CCc2ccccc2)S/C1=C/c1c[nH]c2ncccc12 [DJ4] : 28.8
4) C=CC/N=C1\NC(=O)/C(=C\c2c[nH]c3ncccc23)S1 [DJ-Allyl] : −8.4
